Test system: Escherichia coli TOP10
Assay Procedure: shrunken log2 fold change of peptide-encoding DNA abundance (4.5 h post-induction vs induction); higher = less antimicrobial activity (less host growth inhibition)
Experimental Parameters: time post-induction: 4.5 h; library: site-saturation at positions 5, 18, 19, 20
# shrunken log2 fold change >= -0.09 gives class 1, anything below gives class 0

*Q* hey, is shrunken log2 fold change for this one >= -0.09? RRIRQRPPRLPRPRPRPCCEPRP
*A* class 0

*Q* hey, is shrunken log2 fold change for this one >= -0.09? RRIRRRPPRLPRPRPRPWRNPRP
*A* class 1

*Q* hey, is shrunken log2 fold change for this one >= -0.09? RRIRWRPPRLPRPRPRPHEDPRP
*A* class 1

*Q* hey, is shrunken log2 fold change for this one >= -0.09? RRIRSRPPRLPRPRPRPTTHPRP
*A* class 1

*Q* hey, is shrunken log2 fold change for this one >= -0.09? RRIRHRPPRLPRPRPRPMCDPRP
*A* class 0

*Q* hey, is shrunken log2 fold change for this one >= -0.09? RRIRYRPPRLPRPRPRPLFYPRP
*A* class 0

----------
System: Escherichia coli TOP10
Assay Procedure: shrunken log2 fold change of peptide-encoding DNA abundance (4.5 h post-induction vs induction); higher = less antimicrobial activity (less host growth inhibition)
Experimental Parameters: time post-induction: 4.5 h; library: site-saturation at positions 5, 18, 19, 20
Measured Metric: shrunken log2 fold change
Answer field: number only, no words.

*Q* Look up shrunken log2 fold change for this sequence: RRIRARPPRLPRPRPRPEYLPRP
*A* -0.00441

*Q* Look up shrunken log2 fold change for this sequence: RRIRSRPPRLPRPRPRPAEKPRP
*A* 0.0409

*Q* Look up shrunken log2 fold change for this sequence: RRIRNRPPRLPRPRPRPMMKPRP
*A* 2.77

*Q* Look up shrunken log2 fold change for this sequence: RRIRMRPPRLPRPRPRPLFIPRP
*A* -0.643

*Q* Look up shrunken log2 fold change for this sequence: RRIRDRPPRLPRPRPRPMKYPRP
*A* 0.0311

*Q* Look up shrunken log2 fold change for this sequence: RRIRCRPPRLPRPRPRPVMTPRP
*A* -0.147

*Q* Look up shrunken log2 fold change for this sequence: RRIRDRPPRLPRPRPRPFSFPRP
*A* -0.763

*Q* Look up shrunken log2 fold change for this sequence: RRIRDRPPRLPRPRPRPDRCPRP
*A* -0.149

*Q* Look up shrunken log2 fold change for this sequence: RRIRPRPPRLPRPRPRPHAYPRP
*A* -0.317

*Q* Look up shrunken log2 fold change for this sequence: RRIRLRPPRLPRPRPRPRLEPRP
*A* 0.348

*Q* Look up shrunken log2 fold change for this sequence: RRIRARPPRLPRPRPRPNMDPRP
*A* -0.00909

----------
Test system: Escherichia coli TOP10
Assay Procedure: shrunken log2 fold change of peptide-encoding DNA abundance (4.5 h post-induction vs induction); higher = less antimicrobial activity (less host growth inhibition)
Experimental Parameters: time post-induction: 4.5 h; library: site-saturation at positions 5, 18, 19, 20
Measured Metric: shrunken log2 fold change
Answer field: number only, no words.

*Q* Look up shrunken log2 fold change for this sequence: RRIRCRPPRLPRPRPRPGCEPRP
*A* 0.159

*Q* Look up shrunken log2 fold change for this sequence: RRIRSRPPRLPRPRPRPYVWPRP
*A* -0.332

*Q* Look up shrunken log2 fold change for this sequence: RRIRTRPPRLPRPRPRPWSSPRP
*A* -0.241

*Q* Look up shrunken log2 fold change for this sequence: RRIRWRPPRLPRPRPRPKWRPRP
*A* 0.428

*Q* Look up shrunken log2 fold change for this sequence: RRIRIRPPRLPRPRPRPACVPRP
*A* 0.0215

*Q* Look up shrunken log2 fold change for this sequence: RRIRIRPPRLPRPRPRPELNPRP
*A* 0.12

*Q* Look up shrunken log2 fold change for this sequence: RRIRRRPPRLPRPRPRPLKSPRP
*A* -0.215

*Q* Look up shrunken log2 fold change for this sequence: RRIRPRPPRLPRPRPRPCLLPRP
*A* -0.258

*Q* Look up shrunken log2 fold change for this sequence: RRIRPRPPRLPRPRPRPVSCPRP
*A* -0.095

*Q* Look up shrunken log2 fold change for this sequence: RRIRDRPPRLPRPRPRPNQNPRP
*A* 0.0279

*Q* Look up shrunken log2 fold change for this sequence: RRIRERPPRLPRPRPRPCVVPRP
*A* 0.0441

*Q* Look up shrunken log2 fold change for this sequence: RRIRWRPPRLPRPRPRPHTQPRP
*A* -0.56

*Q* Look up shrunken log2 fold change for this sequence: RRIRGRPPRLPRPRPRPWMMPRP
*A* -0.0114

*Q* Look up shrunken log2 fold change for this sequence: RRIRMRPPRLPRPRPRPTGSPRP
*A* 1.34

*Q* Look up shrunken log2 fold change for this sequence: RRIRERPPRLPRPRPRPSMGPRP
*A* -0.817

*Q* Look up shrunken log2 fold change for this sequence: RRIRVRPPRLPRPRPRPLFNPRP
*A* -0.465

*Q* Look up shrunken log2 fold change for this sequence: RRIRQRPPRLPRPRPRPYAYPRP
*A* -0.0214

----------
Test system: Escherichia coli TOP10
Assay Procedure: shrunken log2 fold change of peptide-encoding DNA abundance (4.5 h post-induction vs induction); higher = less antimicrobial activity (less host growth inhibition)
Experimental Parameters: time post-induction: 4.5 h; library: site-saturation at positions 5, 18, 19, 20
Measured Metric: shrunken log2 fold change
Answer field: number only, no words.

*Q* Look up shrunken log2 fold change for this sequence: RRIRDRPPRLPRPRPRPSFWPRP
*A* 0.585

*Q* Look up shrunken log2 fold change for this sequence: RRIRFRPPRLPRPRPRPCNQPRP
*A* -0.649

*Q* Look up shrunken log2 fold change for this sequence: RRIRYRPPRLPRPRPRPIHDPRP
*A* -1.22

*Q* Look up shrunken log2 fold change for this sequence: RRIRQRPPRLPRPRPRPHHRPRP
*A* 0.104

----------
Field: shrunken log2 fold change. Provide a value for each of the sequences that follow.
System: Escherichia coli TOP10
Assay Procedure: shrunken log2 fold change of peptide-encoding DNA abundance (4.5 h post-induction vs induction); higher = less antimicrobial activity (less host growth inhibition)
Experimental Parameters: time post-induction: 4.5 h; library: site-saturation at positions 5, 18, 19, 20
Answer field: number only, no words.

*Q* Look up shrunken log2 fold change for this sequence: RRIRPRPPRLPRPRPRPYILPRP
*A* -0.588

*Q* Look up shrunken log2 fold change for this sequence: RRIRHRPPRLPRPRPRPGVPPRP
*A* 0.191

*Q* Look up shrunken log2 fold change for this sequence: RRIRDRPPRLPRPRPRPFSEPRP
*A* -0.0447

*Q* Look up shrunken log2 fold change for this sequence: RRIRFRPPRLPRPRPRPPHGPRP
*A* 0.364

*Q* Look up shrunken log2 fold change for this sequence: RRIRMRPPRLPRPRPRPFRHPRP
*A* 0.0701

*Q* Look up shrunken log2 fold change for this sequence: RRIRQRPPRLPRPRPRPIDRPRP
*A* 0.118

*Q* Look up shrunken log2 fold change for this sequence: RRIRHRPPRLPRPRPRPLRHPRP
*A* -0.132

----------
Field: shrunken log2 fold change. Provide a value for each of the sequences that follow.
System: Escherichia coli TOP10
Assay Procedure: shrunken log2 fold change of peptide-encoding DNA abundance (4.5 h post-induction vs induction); higher = less antimicrobial activity (less host growth inhibition)
Experimental Parameters: time post-induction: 4.5 h; library: site-saturation at positions 5, 18, 19, 20
Answer field: number only, no words.

*Q* Param readout= shrunken log2 fold change; system= Escherichia coli TOP10; entry= RRIRFRPPRLPRPRPRPFHCPRP ; returns value.
*A* -0.102

*Q* Param readout= shrunken log2 fold change; system= Escherichia coli TOP10; entry= RRIRDRPPRLPRPRPRPMFNPRP ; returns value.
*A* -0.0203

*Q* Param readout= shrunken log2 fold change; system= Escherichia coli TOP10; entry= RRIRRRPPRLPRPRPRPSLIPRP ; returns value.
*A* -0.118

*Q* Param readout= shrunken log2 fold change; system= Escherichia coli TOP10; entry= RRIRPRPPRLPRPRPRPALPPRP ; returns value.
*A* 1.63

*Q* Param readout= shrunken log2 fold change; system= Escherichia coli TOP10; entry= RRIRWRPPRLPRPRPRPGLFPRP ; returns value.
*A* 2.38

*Q* Param readout= shrunken log2 fold change; system= Escherichia coli TOP10; entry= RRIRFRPPRLPRPRPRPWRWPRP ; returns value.
*A* 0.0911

*Q* Param readout= shrunken log2 fold change; system= Escherichia coli TOP10; entry= RRIRFRPPRLPRPRPRPEQNPRP ; returns value.
*A* 0.264

*Q* Param readout= shrunken log2 fold change; system= Escherichia coli TOP10; entry= RRIRWRPPRLPRPRPRPDQLPRP ; returns value.
*A* 0.066

*Q* Param readout= shrunken log2 fold change; system= Escherichia coli TOP10; entry= RRIRERPPRLPRPRPRPTFAPRP ; returns value.
*A* -0.0119

*Q* Param readout= shrunken log2 fold change; system= Escherichia coli TOP10; entry= RRIRFRPPRLPRPRPRPIFGPRP ; returns value.
*A* 0.449

*Q* Param readout= shrunken log2 fold change; system= Escherichia coli TOP10; entry= RRIRRRPPRLPRPRPRPVFDPRP ; returns value.
*A* 0.348

*Q* Param readout= shrunken log2 fold change; system= Escherichia coli TOP10; entry= RRIRPRPPRLPRPRPRPSMWPRP ; returns value.
*A* -0.252

*Q* Param readout= shrunken log2 fold change; system= Escherichia coli TOP10; entry= RRIRWRPPRLPRPRPRPPQYPRP ; returns value.
*A* 0.0672

*Q* Param readout= shrunken log2 fold change; system= Escherichia coli TOP10; entry= RRIRTRPPRLPRPRPRPFVNPRP ; returns value.
*A* -0.223

*Q* Param readout= shrunken log2 fold change; system= Escherichia coli TOP10; entry= RRIRSRPPRLPRPRPRPHIYPRP ; returns value.
*A* -0.607

*Q* Param readout= shrunken log2 fold change; system= Escherichia coli TOP10; entry= RRIRDRPPRLPRPRPRPAVWPRP ; returns value.
*A* 1.19

*Q* Param readout= shrunken log2 fold change; system= Escherichia coli TOP10; entry= RRIRTRPPRLPRPRPRPTGTPRP ; returns value.
*A* -0.0721

*Q* Param readout= shrunken log2 fold change; system= Escherichia coli TOP10; entry= RRIRCRPPRLPRPRPRPSDCPRP ; returns value.
*A* -0.387

*Q* Param readout= shrunken log2 fold change; system= Escherichia coli TOP10; entry= RRIRKRPPRLPRPRPRPIFQPRP ; returns value.
*A* 0.266

*Q* Param readout= shrunken log2 fold change; system= Escherichia coli TOP10; entry= RRIRQRPPRLPRPRPRPFTEPRP ; returns value.
*A* -0.223

*Q* Param readout= shrunken log2 fold change; system= Escherichia coli TOP10; entry= RRIRVRPPRLPRPRPRPPQQPRP ; returns value.
*A* 0.575

*Q* Param readout= shrunken log2 fold change; system= Escherichia coli TOP10; entry= RRIRLRPPRLPRPRPRPVGTPRP ; returns value.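 Also: peptides expressed intracellularly from a pBAD plasmid library in pooled LB shake-flask culture, induced with 0.3% L-arabinose, DNA abundance read by NGS, three biological replicates, DESeq2 with apeglm shrinkage.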
*A* 0.00938
